# Target Entity: Streptavidin (Streptomyces avidinii)
# Test Method Notes: streptavidin binders on small-molecule microarray, primary screen, artefact control for SMM compound annotation, biophysical, 635/667 nm fluorescence (AID 1147);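 further: signal reflects streptavidin binding to arrayed compounds as a control protein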
# Conditions Used: streptavidin binding, higher = more signal
Please note: Met applies when composite z-score is 0.5 or greater, and Not met applies otherwise.

compound=COCCOC(=O)N1C(=O)[C@@]2(c3cc(C#CC4=CCCCC4)ccc31)[C@H](C(=O)N1CCCCCCC1)[C@H]1C(=O)O[C@H](c3ccccc3)[C@H](c3ccccc3)N1[C@@H]2c1ccccc1OCCO category=Met

Q: Say whether CCOC(=O)C[C@H]1[C@H](OC(=O)c2ccccc2-c2ccccc2)[C@@H](NC(=O)CC(C)C)c2cc(OCCCO)ccc2N1C(=O)c1ccccc1 shows composite z-score of 0.5 or more.
Result: Not met

Q: Say whether COCCOC(=O)N1C(=O)[C@@]2(c3cc(C#CCNC(N)=O)ccc31)[C@H](C(N)=O)[C@H]1C(=O)O[C@H](c3ccccc3)[C@H](c3ccccc3)N1[C@@H]2c1ccc(O)cc1 shows composite z-score of 0.5 or more.
Result: Not met

Q: Say whether CC1C2C(CCCO)=CC(C3C(=O)N(C)C(=O)C23)N1Cc1cccc(OC(F)(F)F)c1 (centres undefined) shows composite z-score of 0.5 or more.
Result: Met

Q: Say whether C[C@H]1C2[C@H](Cc3ccccc3)NC(=O)[C@]23C(=O)N[C@@H](Cc2ccccc2)C(=O)N2CCC[C@H]2C(=O)NC/C=C/CC/C=C/C3[C@@H]2O[C@]12C (some centres undefined) shows composite z-score of 0.5 or more.
Result: Not met

Q: Say whether CCCCN1CC=CC23O[C@@H]4/C=C\CCC(C)OC(=O)C4[C@H]2C(=O)N(CCO)[C@@H]3C1=O (some centres undefined) shows composite z-score of 0.5 or more.
Result: Not met

Q: Say whether COC(=O)C1=CC(CCCO)=CC(c2ccc(CN3CCCC3)cc2)N(C)C=C1C(=O)OC (centres undefined) shows composite z-score of 0.5 or more.
Result: Met

Q: Say whether COc1ccc(C(=O)Nc2cccc(CN3C(=O)[C@]4(O[C@H](CC(=O)N(CCO)Cc5ccccc5)[C@@H]([Si](C)(C)c5ccc(OC)cc5)[C@@H]4C)c4ccccc43)c2)cc1 shows composite z-score of 0.5 or more.
Result: Not met

Q: Say whether C=C(/C=C\CNS(=O)(=O)c1ccc(C)cc1)[C@H](O)[C@H]1CCCN1S(=O)(=O)c1ccccc1[N+](=O)[O-] shows composite z-score of 0.5 or more.
Result: Not met

Q: Say whether COC(=O)[C@@]1(Cc2ccc(F)cc2)[C@H]2c3cc(C(=O)N(C)C)n(Cc4ccc(C(F)(F)F)nc4)c3C[C@H]2CN1C(=O)c1ccccc1 shows composite z-score of 0.5 or more.
Result: Met

Q: Say whether N#Cc1ccc(NN2C(C(O)c3ccc(B(O)O)cc3)C=CC3CN(c4ccccc4)C(=O)C32)cc1 (centres undefined) shows composite z-score of 0.5 or more.
Result: Not met

Q: Say whether C=C(C(=O)CC[C@@H](OC(=O)c1ccccc1-c1ccccc1C(=O)O)c1cccc(OCCO)c1)C(C)C shows composite z-score of 0.5 or more.
Result: Not met

Q: Say whether O=C1C2C=CC(C(O)C3CCCCC3)N(Nc3ccccc3F)C2C(=O)N1c1ccccc1 (centres undefined) shows composite z-score of 0.5 or more.
Result: Met

Q: Say whether CO[C@H]1O[C@H](CO)[C@@H](OC(=O)Nc2cccc(F)c2)[C@H](OC(=O)Nc2ccc3c(c2)OCO3)[C@@H]1OC(=O)Nc1ccc2c(c1)OCO2 shows composite z-score of 0.5 or more.
Result: Not met
